Where these numbers come from: PubChem BioAssay (EPA / NIEHS)

Assay: TOX21_p53_BLA_p2_viability: Viability Assessment in the Tox21 HCT-116 p53 Agonism Beta-lactamase Assay, Phase 2 (AID 2283591);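 further: compound exposure lasted 16 h at 37 °C; actives lower the ATP signal meaning cytotoxicity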
Records with an inconclusive call do not appear. The source made the active and inactive calls. How the source made its calls: active means hit-call score of the fitted dose curve at least 0.9, where 1 is the maximum; inconclusive means response in the unintended direction; inactive means score below 0.9.
Outcomes: 1 (yes) (active), 0 (no) (inactive)

> print(dat)
                                   molecule  classification
1                                 Oc1ccccc1          0 (no)
2  CC(C)(O)c1ccc(CNC(=O)c2cccnc2Oc2ccc3nonc3c2)cc1          0 (no)
3                     CCCCOC(=O)c1ccc(O)cc1          0 (no)
4  OC12N=C(c3ccccc3)SC1Cc1cc(Cl)ccc12 (stereo unspecified)          0 (no)
5  NC(=O)c1nc(-c2cccc(-c3cc(F)ccc3OCC(F)(F)C(F)(F)F)c2)n[nH]1         1 (yes)
6  CN1C(=O)N(c2ccccc2Br)Cc2cnc(Nc3ccc4c(c3)OCC(CO)O4)nc21 (stereo unspecified)         1 (yes)

###

Experiment: ATG_M_19_CIS: Attagene CIS-FACTORIAL HepG2 Assay for M19 Transcription Factor (Internal Marker) (AID 2282939)
Settings: HepG2 Attagene CIS-FACTORIAL M19 internal marker reporter; actives raise or lower the signal
Calls of active or inactive are those of the source. How the source made its calls: active means hit-call score of the fitted dose curve at least 0.9, where 1 is the maximum; inactive means score below 0.9.
property_measured: outcome

> print(dat)
                                entry.smiles  value.reported
 1                          Cc1ccc(C(C)C)cc1        inactive
 2  CCN(Cc1cccnc1)C(=O)c1cccc(Cl)c1[C@]1(C)C(=O)N(Cc2ccc(OC)cc2OC)c2ccc(Cl)cc21        inactive
 3                             CCCCCCCCCCCCO        inactive
 4      O=c1c(-c2ccc(O)cc2)coc2cc(O)cc(O)c12        inactive
 5              CC1=CC(=O)/C(=C(/C)O)C(=O)O1        inactive
 6              c1ccc(C[n+]2cccc3ccccc32)cc1        inactive
 7                            c1ccc2ccccc2c1        inactive
 8           CCCCCCCCOC(=O)c1cc(O)c(O)c(O)c1        inactive
 9  CN(C)c1ccc(C(=C2C=CC(=[N+](C)C)C=C2)c2ccc(N(C)C)cc2)cc1        inactive
10                        O=c1[nH]sc2ccccc12        inactive
11                                 Oc1ccccc1        inactive
12                          c1ccc2n[nH]nc2c1        inactive
13  CCN(CC)C(=O)c1cc(S(=O)(=O)Cc2ccccc2)c(N2CCC(c3ccccc3)CC2)cc1N(CC)CCN(C)C        inactive
14                          O=C=NCCCCCCN=C=O        inactive
15  CC1(C)NC(=O)N(c2ccc([N+](=O)[O-])c(C(F)(F)F)c2)C1=O        inactive
16  CC(C)(C)c1cc(/C=C2\SC(N)=NC2=O)cc(C(C)(C)C)c1O        inactive
17            Clc1cc(Cl)c2c(c1)N=C1CCCCCN1C2        inactive
18                          CCCC(=O)OCCC(C)C        inactive
19             O=C(O)c1ccccc1C(=O)OCc1ccccc1        inactive
20  CCOC(=O)O[C@H](C)OC(=O)c1ccc2c(c1)cc(C(=O)NC1CCN(C(C)C)CC1)n2Cc1cc(-c2ccc(Cl)s2)on1        inactive
21  CC(C)(c1cc(Br)c(O)c(Br)c1)c1cc(Br)c(O)c(Br)c1        inactive
22  Cc1oc2c(NC(=O)c3c(Cl)cccc3Cl)cccc2c1C(C)(C)O        inactive
23  COc1cc(C(=O)NC2CCN(C)CC2)ccc1Nc1ncc2c(n1)N(C1CCCC1)CC(F)(F)C(=O)N2C        inactive
24  COc1ccc2cc(S(=O)(=O)N[C@H](CC(=O)N[C@H](Cc3ccc(CN4[C@H](C)CCC[C@@H]4C)cc3)C(=O)N(C)C(C)C)c3ccc4c(c3)OCO4)ccc2c1        inactive
